Reported growth inhibition by item:
test: inhibition of 3D7 malaria parasite growth – strain 3D7 (AID 2306);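 further: 0% = DMSO wells and 100% = chloroquine plus artemisinin control wells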; details: P. falciparum 3D7 erythrocytic growth, LDH absorbance, 72 h; at 2 µM; active compounds read high
Give the number; % is assumed, so skip it.

Look over these answered cases.
>>> df
                                   compound  measured_parameter  measurement
0  COc1ccc2nc(NC3=NC(c4ccccn4)(c4ccccn4)C(=O)N3C)[nH]c2c1   growth inhibition           99
1  CCOC(=O)C(NC(=O)c1ccc([N+](=O)[O-])o1)C(C)C (stereo not drawn)   growth inhibition           87
2  O=C(NCCN1CCCCC1)N1CCCN(c2ncnc3cc(-c4ccccc4)sc23)CC1   growth inhibition           89

Now examine the next entry.
Q: Returns the measured growth inhibition for the input compound. Input: CCN(CC)CCN(Cc1ccc(-c2ccc(C(F)(F)F)cc2)cc1)C(=O)Cn1c(CCc2cccc(F)c2F)nc(=O)c2cc(F)ccc21
Ans: 98

Attribution: PubChem BioAssay
